TESTED ON: CFTR (Homo sapiens, UniProt P13569, DEL508-508)
Construct: endogenous in cells; host or cells: primary human bronchial epithelial cells from CF subjects (F508del/MF-HBE), differentiated at air-liquid interface
Sequence (P13569 with tags, fused parts or gaps DEL508-508): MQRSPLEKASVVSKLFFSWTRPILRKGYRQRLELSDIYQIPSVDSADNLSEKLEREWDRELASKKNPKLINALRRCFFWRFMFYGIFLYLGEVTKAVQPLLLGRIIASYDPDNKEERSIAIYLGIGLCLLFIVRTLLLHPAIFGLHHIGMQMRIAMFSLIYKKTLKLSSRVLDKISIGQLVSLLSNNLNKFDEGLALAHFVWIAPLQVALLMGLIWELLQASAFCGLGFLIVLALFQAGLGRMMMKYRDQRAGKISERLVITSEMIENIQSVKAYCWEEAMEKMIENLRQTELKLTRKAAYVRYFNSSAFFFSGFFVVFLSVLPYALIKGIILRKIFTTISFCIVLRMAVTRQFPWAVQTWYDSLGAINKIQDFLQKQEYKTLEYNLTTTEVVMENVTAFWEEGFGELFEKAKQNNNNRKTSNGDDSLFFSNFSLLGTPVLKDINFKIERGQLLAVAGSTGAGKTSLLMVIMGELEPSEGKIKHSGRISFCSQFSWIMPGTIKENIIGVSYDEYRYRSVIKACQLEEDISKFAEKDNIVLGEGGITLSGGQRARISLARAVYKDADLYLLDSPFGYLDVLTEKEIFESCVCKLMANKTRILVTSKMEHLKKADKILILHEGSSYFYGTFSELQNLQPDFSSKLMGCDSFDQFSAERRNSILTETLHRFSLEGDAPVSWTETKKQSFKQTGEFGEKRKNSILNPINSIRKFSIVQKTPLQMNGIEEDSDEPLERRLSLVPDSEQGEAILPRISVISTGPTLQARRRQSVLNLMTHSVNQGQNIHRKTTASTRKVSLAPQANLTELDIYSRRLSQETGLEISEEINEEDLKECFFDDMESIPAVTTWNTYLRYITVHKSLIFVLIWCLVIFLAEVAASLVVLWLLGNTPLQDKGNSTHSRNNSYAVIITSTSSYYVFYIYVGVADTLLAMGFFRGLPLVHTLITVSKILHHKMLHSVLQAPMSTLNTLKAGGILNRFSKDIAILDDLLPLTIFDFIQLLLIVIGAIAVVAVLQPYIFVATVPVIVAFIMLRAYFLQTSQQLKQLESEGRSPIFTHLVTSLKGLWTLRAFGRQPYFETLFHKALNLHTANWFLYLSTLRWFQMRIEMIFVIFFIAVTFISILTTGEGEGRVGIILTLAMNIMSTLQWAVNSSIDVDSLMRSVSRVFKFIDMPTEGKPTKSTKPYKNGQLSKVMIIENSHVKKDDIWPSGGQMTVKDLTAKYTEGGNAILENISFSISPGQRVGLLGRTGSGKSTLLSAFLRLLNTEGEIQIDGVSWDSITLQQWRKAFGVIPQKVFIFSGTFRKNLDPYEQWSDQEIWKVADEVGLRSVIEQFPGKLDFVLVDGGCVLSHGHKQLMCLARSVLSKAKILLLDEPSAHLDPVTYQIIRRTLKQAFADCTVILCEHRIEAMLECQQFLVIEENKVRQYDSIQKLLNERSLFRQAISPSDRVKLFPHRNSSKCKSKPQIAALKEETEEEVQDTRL
EXPERIMENT SUMMARY: HBE assay: Ussing chamber assay of CFTR-mediated short-circuit currents
Assay type: cell-based
CONDITION INFO: Table 11; read-out: HBE EC50
pEC50: −log10 of the molar value.
TEST READOUT: pEC50

I have this compound here, Cc1cccc(C)c1-c1cc2nc(n1)NS(=O)(=O)c1cccc(c1)C(=O)N(C[C@@H]1CN(C(=O)OC(C)(C)C)CCO1)[C@H](CC(C)(C)C)CO2 [Compound 141] , and I need its recorded pEC50.
> 6.00

And the next one, Cc1cccc(C)c1-c1cc2nc(n1)NS(=O)(=O)c1cccc(c1)C(=O)N(Cc1cncc(N(C)C)n1)[C@H](CC(C)(C)C)CO2 [Compound 885] ?
> 6.00

Try this compound next: Cc1cccc(C)c1-c1cc2nc(n1)NS(=O)(=O)c1cccc(c1)C(=O)N(Cc1cccc(C3CCCC3)n1)[C@H](CC(C)(C)C)CO2 [Compound 598]
> 6.00

Okay, and Cc1cccc(C)c1-c1cc2nc(n1)NS(=O)(=O)c1cccc(c1)C(=O)N(Cc1nccc(N3CCOCC3)n1)[C@H](CC(C)(C)C)CO2 [Compound 651] ?
> 6.00

And the next one, COC1CCN(c2cnc(CN3C(=O)c4cccc(c4)S(=O)(=O)Nc4nc(cc(-c5c(C)cccc5C)n4)OC[C@H]3CC(C)(C)C)nc2)CC1 [Compound 718] ?
> 6.00

Now try Cc1cccc(C)c1-c1cc2nc(n1)NS(=O)(=O)c1cccc(c1)C(=O)N(Cc1ccc(N3CCC(C)(C)C3)cn1)[C@H](CC(C)(C)C)CO2 [Compound 609] .
5.52 to 6.00

Param item: Cc1cccc(C)c1-c1cc2nc(n1)NS(=O)(=O)c1cccc(c1)C(=O)N(Cc1ccc(OCC(C)(C)O)cn1)[C@H](CC(C)(C)C)CO2 [Compound 51]
> 6.00

Again, but for Cc1cccc(C)c1-c1cc2nc(n1)NS(=O)(=O)c1cccc(c1)C(=O)N(Cc1cccc(N3CCC[C@@H]3C)n1)[C@H](CC(C)(C)C)CO2 [Compound 710]
> 6.00

Also check COC1CCN(c2cnc(CN3C(=O)c4cccc(c4)S(=O)(=O)Nc4nc(cc(-c5c(C)cccc5C)n4)OC[C@H]3CC(C)(C)C)nc2)C1 (stereo partly drawn) [Compound 599]
5.52 to 6.00

// query: Cc1cccc(C)c1-c1cc2nc(n1)NS(=O)(=O)c1cccc(c1)C(=O)N(Cc1ncc(N(C)C(C)C)cn1)[C@H](CC(C)(C)C)CO2 [Compound 633]
5.52 to 6.00

Follow-up item: Cc1cccc(C)c1-c1cc2nc(n1)NS(=O)(=O)c1cccc(c1)C(=O)N(Cc1ncc(N3CC4(CC4)C3)cn1)[C@H](CC(C)(C)C)CO2 [Compound 622]
5.52 to 6.00

Repeat for the following compound: Cc1cccc(C)c1-c1cc2nc(n1)NS(=O)(=O)c1cccc(c1)C(=O)N(Cc1cccc(C3CCC(C)(C)CC3)n1)[C@H](CC(C)(C)C)CO2 [Compound 727]
> 6.00
